Experiment: Serum Lutein concentration by HPLC during 24 weeks of daily capsule ingestion (bioavailability evaluation)
Type: in vivo
Settings: human, serum, oral, 20 mg, serum, group average, week 12, 20 mg daily capsule in vegetable oil; read-out: Week 12 Lutein Conc. C, group average
measuredParameter: concentration at 12 weeks (ng/mL)
Report as a plain number; the unit ng/mL is understood.

## Task Item CC1=C[C@H](O)CC(C)(C)[C@H]1/C=C/C(C)=C/C=C/C(C)=C/C=C/C=C(C)/C=C/C=C(C)/C=C/C1=C(C)C[C@@H](O)CC1(C)C [Lutein] has what recorded concentration at 12 weeks?
## Result 577
